system: Wolbachia pipientis; assay: Anti-Wolbachia Cell-Based Screen; type: functional; parameters: scale not given: in the data most compounds retested in dose-response had high values; conditions: 5 µM
Screen size: about 48,000 compounds; about 13,000 (27%) showed an effect of 50% or more. The list shows a part of the results.
observed-property: Percent Effect (%)
Please state the figure in %; there is no need to write the unit.

{"smiles-repr": "COC(=O)COc1c(F)cc(Br)cc1C(C)=O", "val": 110.5}

QUERY: Let me know recorded Percent Effect for CCn1cc(CN2CCCN(C(=O)c3ccco3)CC2)cn1 , thanks.
RESULT: 139.7

QUERY: Consider the compound Cc1ccoc1C(=O)N1CCCN(Cc2cnn(C)c2)CC1 and give its recorded Percent Effect.
RESULT: 85.33

QUERY: Give a short answer stating reported Percent Effect for CCn1cc(CN2CCCN(C(=O)c3ccn(C)c(=O)c3)CC2)cn1 .
RESULT: -5.674

QUERY: Could you please provide reported Percent Effect for CC(C)n1cc(CN2CCCN(C(=O)c3ccco3)CC2)cn1 ? Thanks!
RESULT: 13.14

QUERY: Please look at this compound and report its Percent Effect: CC(C)CCc1noc(CN2CCCN(C(=O)c3ccco3)CC2)n1
RESULT: -6.659

QUERY: // Input: CC(=O)c1cc(Br)cc(F)c1OCC(=O)NC(C)C . Output its Percent Effect only.
RESULT: 60.24

###

test system: Wolbachia pipientis; assay: Anti-Wolbachia Cell-Based Screen; assay type: functional; parameters: scale not given: in the data most compounds retested in dose-response had high values; settings: 5 µM
The campaign covered roughly 48,000 compounds. About 13,000 (27%) showed an effect of 50% or more. The list shows a part of the results.
List of Percent Effect values.
Report only the number, with the unit % understood.

Some compounds with recorded Percent Effect:
{"compound": "CCc1ccc(C(=O)N2CCCn3nnc(Cn4cccn4)c3C2)cc1", "val": 1.938}
{"compound": "COCC(=O)N1CCN(C(C)c2ncc(-c3ccccc3)o2)CC1 (stereo unspecified)", "val": 108.5}
{"compound": "CCOc1cccc(CNC(=O)C(C)(C)C#N)c1OC(F)F", "val": -15.69}
{"compound": "Cc1cc(C)c2c(c1)C(NC(=O)CSc1nnc[nH]1)CCO2 (stereo unspecified)", "val": 8.701}
{"compound": "CC(=O)NCc1nnn2c1CN(c1ncc(C)cn1)CCC2", "val": 101.7}

QUERY: Please report Percent Effect for the following compound: COCc1nnn2c1CN(C(=O)c1c[nH]cn1)CCC2
RESULT: -0.6058

QUERY: Provide only the value of recorded Percent Effect for CCS(=O)(=O)N1CCCn2nnc(CNC(C)=O)c2C1
RESULT: 115.8439

QUERY: Indicate the recorded Percent Effect value for this compound: CCN(C1CCN(c2cccc(F)c2C(C)=O)CC1)S(C)(=O)=O
RESULT: -1.557

QUERY: Quote Percent Effect reported for Cc1cccc(N2CCc3ncc(CNS(C)(=O)=O)n3CC2)n1.O=C(O)C(F)(F)F please.
RESULT: 88.7

QUERY: Tell me measured Percent Effect for CN1CCc2ncc(CNc3cc(N(C)C)ncn3)n2CC1.O=C(O)C(F)(F)F please.
RESULT: -9.651

QUERY: Name the recorded Percent Effect of the item O=C(O)C(F)(F)F.c1ccc(OCc2nnn3c2CN(c2ncccn2)CCC3)nc1 in your answer.
RESULT: -15.4

###

system: Wolbachia pipientis; experiment: Anti-Wolbachia Cell-Based Screen; assay type: functional; set-up: scale not given: in the data most compounds retested in dose-response had high values; settings: 5 µM
Hit rate of the full screen: of about 48,000 compounds, about 13,000 (27%) showed an effect of 50% or more. Some of the results follow.
observed-property: Percent Effect (%)
Express the result in % but write the number alone.

Consider the following illustrative entries.
{"compound": "O=C(O)C(F)(F)F.O=C(O)C(F)(F)F.c1ccc(CN2CCC3(CC2)CN(c2ccccn2)CCO3)nc1", "val": 2.249}
{"compound": "Cc1cccc(CC(=O)N2CCCC(c3n[nH]c4nccnc34)C2)c1 (centres undefined)", "val": 102.4}
{"compound": "Cc1cnn(CC2CCCCN2c2ncnc3ccccc23)c1 (centres undefined)", "val": -9.464}

QUERY: For O=C(CC1CCCC1)N1CCN(c2ccc(-n3cncn3)nn2)CC1 , write its Percent Effect.
RESULT: 17.68

###

tested on: Wolbachia pipientis; test: Anti-Wolbachia Cell-Based Screen; type: functional; set-up: scale not given: in the data most compounds retested in dose-response had high values; settings: 5 µM
Out of some 48,000 compounds screened, about 13,000 (27%) showed an effect of 50% or more. This is one part of the list.
# Percent Effect listing for each entry below
# value in %; strip the unit string

Guide cases for Percent Effect, answers given:
{"compound": "CCn1c(C)cc(C(=O)NCc2cccc(NS(C)(=O)=O)c2)c1C", "observed-property": "Percent Effect", "val": -5.652}
{"compound": "Cc1nn(C)c(C)c1CNCc1ccc(N2CCOCC2)nc1.Cl", "observed-property": "Percent Effect", "val": -2.34}
{"compound": "CCS(=O)(=O)c1ccccc1C(=O)NCC1Cc2ccccc2O1 (stereo unspecified)", "observed-property": "Percent Effect", "val": -9.446}
{"compound": "COc1c(CNCc2cccnc2N2CCCCC2)c(C)nn1C", "observed-property": "Percent Effect", "val": 105.9}
{"compound": "CN(C)CCCN1CC2(CCN(C3CCCOC3)CC2)OC1=O (stereo unspecified)", "observed-property": "Percent Effect", "val": -5.756}
{"compound": "CC(C)(C(=O)NCC(N)=O)c1ccccc1F", "observed-property": "Percent Effect", "val": -10.57}
{"compound": "COc1ncc(C)cc1NC(=O)COc1ccccc1F", "observed-property": "Percent Effect", "val": -12.82}
{"compound": "COc1ccc(F)c(F)c1CN1CCN(CC(C)C)C(=O)C1C (stereo unspecified)", "observed-property": "Percent Effect", "val": 1.65}
{"compound": "Cc1ccn(CC(=O)N2CC[C@@H](c3ccc4ccccc4c3)[C@H](O)C2)n1", "observed-property": "Percent Effect", "val": 0.6829}
{"compound": "CC(C)c1nn(C)c(Cl)c1CNCc1cccnc1N(C)C.Cl", "observed-property": "Percent Effect", "val": 4.509}

QUERY: Please report the measured Percent Effect for CN(Cc1cn2c(n1)CN(Cc1ccsc1)CC2)Cc1ccco1.O=C(O)C(F)(F)F.O=C(O)C(F)(F)F
RESULT: -7.727

###

Listed compounds paired with reported Percent Effect
system: Wolbachia pipientis; test: Anti-Wolbachia Cell-Based Screen; assay type: functional; parameters: scale not given: in the data most compounds retested in dose-response had high values; conditions: 5 µM
Screen size: about 48,000 compounds; about 13,000 (27%) showed an effect of 50% or more. This is one part of the list.
Give just the numeric value; % need not be written.

{"compound": "Cc1nc(CNC(=O)NC2CCN(c3ncccc3Cl)C2)no1 (stereo unspecified)", "Percent Effect, %": -5.791}

QUERY: Consider the compound Cn1ccc(C(=O)Nc2cccc(-c3ccc4c(c3)CCO4)n2)cc1=O . State its measured Percent Effect.
RESULT: -14.88

###

The entries below are paired with their reported Percent Effect.
system: Wolbachia pipientis; assay: Anti-Wolbachia Cell-Based Screen; assay type: functional; parameters: scale not given: in the data most compounds retested in dose-response had high values; conditions: 5 µM
Out of some 48,000 compounds screened, about 13,000 (27%) showed an effect of 50% or more. The list shows a part of the results.
Return type: number; implicit unit %.

{"compound": "O=C(C1CCC1)N1CCN(Cc2ccccc2F)[C@H]2CS(=O)(=O)C[C@H]21", "unit-descriptor": "%", "Percent Effect": 4.948}
{"compound": "CN1CC(C(=O)NCc2ccc(OCc3cccnc3)cc2)CC1=O (stereo unspecified)", "unit-descriptor": "%", "Percent Effect": -2.56}
{"compound": "CN1CC(C(=O)NCCc2ccc(F)c(Br)c2)CC1=O (stereo unspecified)", "unit-descriptor": "%", "Percent Effect": 95.91}

QUERY: Give Percent Effect; test system Wolbachia pipientis; compound CN1CC(C(=O)NCc2ccc(Br)cc2F)CC1=O (stereo unspecified)
RESULT: 97.3

QUERY: Tell me its Percent Effect on Wolbachia pipientis: CC(=O)N1CCCC(C(=O)NCCc2ccc(F)c(Br)c2)C1 (stereo unspecified)
RESULT: 78.71

QUERY: Look up and report Percent Effect, with Wolbachia pipientis as system, for CN1CC(C(=O)NCc2cccnc2OCC(F)(F)F)CC1=O (stereo unspecified)
RESULT: 1.673

###

tested on: Wolbachia pipientis; experiment: Anti-Wolbachia Cell-Based Screen; type: functional; parameters: scale not given: in the data most compounds retested in dose-response had high values; details: 5 µM
The whole screen tested about 48,000 compounds, of which about 13,000 (27%) showed an effect of 50% or more. The list shows a part of the results.
observed-property: Percent Effect (%)
# number only, unit % dropped from output

Use the examples below as a reference point.
{"molecule": "CCc1csc(CCNC(=O)C2CC(=O)N(C(C)C)C2)n1 (stereo unspecified)", "Percent Effect (%)": 2.498}
{"molecule": "Cc1cc(CNC(=O)[C@H]2CCCCN2C(=O)OC(C)(C)C)on1", "Percent Effect (%)": -34.39}
{"molecule": "NC(=O)c1ccc(C(=O)N2CCCCC2Cn2cccn2)s1 (stereo unspecified)", "Percent Effect (%)": 92.92}
{"molecule": "Cc1c(-c2ccncc2)n[nH]c1NC(=O)CCOC(C)C", "Percent Effect (%)": -12.27}
{"molecule": "O=C(c1cccc2[nH]ncc12)N1CCCC1c1noc(C2CC2)n1 (stereo unspecified)", "Percent Effect (%)": -9.191}

Next molecule, please.
QUERY: Supply Percent Effect value. Item: CC(C)(O)c1cn(C2CCN(C(=O)CCc3ccncc3)CC2)nn1
RESULT: -4.68
